Experiment: polyglutamine-triggered caspase-3 activation inhibitors, cell-based (AID 1583)
Conditions: polyglutamine-induced caspase-3 activation, cell assay; stronger effect = higher value;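 tested at 10 µM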
Peptide text beside a SMILES is read from it. * marks the point of attachment. For = O=C*
assay metric: inhibition (%)

1. CN1CCc2c(c3ccccc3n2Cc2ccccc2)C1
13.5
2. O=C1CN(/N=C/c2ccc([N+](=O)[O-])o2)C(=O)N1
27
3. COC(=O)[C@H]1[C@H]2C[C@H]3c4[nH]c5cc(OC)ccc5c4CCN3C[C@H]2C[C@@H](OC(=O)c2cc(OC)c(OC)c(OC)c2)[C@@H]1OC
-6.47
4. N=c1nc(N2CCCCC2)cc(N)n1O
20.6
5. CC(C)NCC(O)COc1ccc(CC(N)=O)cc1 (configuration not stated)
16.6
6. CCOc1ccccc1OCC1CNCCO1 (configuration not stated)
-5.29
7. COC(=O)C1=C(C)NC(C)=C(C(=O)OCCN(C)Cc2ccccc2)C1c1cccc([N+](=O)[O-])c1 (configuration not stated)
5.3
8. NC(Cn1ccc(=O)c(O)c1)C(=O)O (configuration not stated)
-4.48
9. COc1cc(CNC(=O)CCCC/C=C/C(C)C)ccc1O
-19.2
10. CSCCC(NC=O)C(=O)NC(Cc1ccccc1)C(=O)O (stereo not drawn) (For-Met-Phe-OH; configuration not given here)
0.6
11. COc1cc(Cc2cnc(N)nc2N)cc(OC)c1OC
-19.7
12. CN(C)CC/C=C1\c2ccccc2Sc2ccc(Cl)cc21
3.29
13. CNCCC=C1c2ccccc2CCc2ccccc21
16.9
14. NC(=O)c1ccc[n+]([C@@H]2O[C@H](COP(=O)([O-])OP(=O)(O)OC[C@H]3O[C@@H](n4cnc5c(N)ncnc54)[C@H](OP(=O)(O)O)[C@@H]3O)[C@@H](O)[C@H]2O)c1
19.9
15. CCCCCCCCCCCCCCCC(=O)OC/C=C(C)/C=C/C=C(C)/C=C/C1=C(C)CCCC1(C)C
-19.1
16. O=C(O)c1cc(=O)c2ccccc2[nH]1
-5.47
17. O=C(O)c1cn(C2CC2)c2cc(N3CCNCC3)c(F)cc2c1=O
8.05
18. CN1C[C@H](C(=O)N[C@]2(C)O[C@@]3(O)[C@@H]4CCCN4C(=O)[C@H](Cc4ccccc4)N3C2=O)C[C@@H]2c3cccc4[nH]cc(c34)C[C@H]21
-12.1
19. CC[C@@H](CO)NCCN[C@@H](CC)CO
-11.7
20. CC(C(=O)O)c1ccc(N2Cc3ccccc3C2=O)cc1 (configuration not stated)
-2.1
21. CC(=O)N[C@@H]1[C@@H](O)[C@H](O)[C@@H](CO)O[C@H]1O
0.38
22. COc1ccc2c3c1O[C@H]1C[C@@H](O)C=C[C@@]31CCN(C)C2
-3.14
